Species: Rattus norvegicus
EXPERIMENT DESCRIPTION: […] determined in faces of rat followed by […] of chelating agent
Assay type: ADME, organism-based
EXPERIMENTAL CONDITIONS: in vivo, iv
Assign labels as follows, please: TRUE for Distribution below 7%; FALSE for Distribution equal to or exceeding 7%.

Some solved entries appear below for comparison.
* CC(=O)N(O)CCCCCNC(=O)CCC(=O)N(O)CCCCCNC(=O)CCC(=O)N(O)CCCCCN [DEFEROXAMINE] | FALSE
* Cc1csc(N/N=C/c2c(CO)cnc(C)c2O)n1 | TRUE
* Cc1ncc(CO)c(/C=N/NC(=O)OC(C)(C)C)c1O | FALSE
* Cc1ncc(CO)c(/C=N/NC(=O)c2ccncc2)c1O [PYRIDOXAL ISONICOTINOYL HYDRAZONE] | FALSE
* CCOC(=O)N/N=C/c1c(CO)cnc(C)c1O | FALSE

Criterion: Distribution strictly below 7%. Is it met by Cc1ncc(CO)c(/C=N/Nc2nc(-c3ccccc3)cs2)c1O ? FALSE

is_below(Distribution, 7%) for Cc1ncc(CO)c(/C=N/NC(N)=O)c1O ? TRUE

###

Each entry below carries its recorded Distribution.
Tested on: Rattus norvegicus
EXPERIMENT DESCRIPTION: % distribution of the radioiron in blood of rat followed by intravenous injection of chelating agent
Format: ADME, organism-based
EXPERIMENTAL CONDITIONS: in vivo
Write down the numeric answer in % and omit the unit.

Recorded results for 2 compounds are shown here.
* CCOC(=O)N/N=C/c1c(CO)cnc(C)c1O | 19
* Cc1ncc(CO)c(/C=N/NC(=O)OC(C)(C)C)c1O | 19.4

In one line, give reported Distribution of the entry Cc1ncc(CO)c(/C=N/NC(N)=O)c1O . 12.3

###

Tested on: Rattus norvegicus
EXPERIMENT DESCRIPTION: % distribution of the radioiron in blood of rats followed by intravenous injection of transferrin pre-incubated with 10 mg of chelating agent
Type: ADME, organism-based
EXPERIMENTAL CONDITIONS: in vivo
MEASURE: Distribution (%)
Quick note: give the figure in %, leave out the unit.

The cases that follow already have their Distribution on record.
- Cc1ncc(CO)c(/C=N/NC(=O)c2ccnc3ccccc23)c1O: 27.9
- Cc1ncc(CO)c(/C=N/NC(=O)c2cccnc2)c1O: 39.6
- CC(=O)N(O)CCCCCNC(=O)CCC(=O)N(O)CCCCCNC(=O)CCC(=O)N(O)CCCCCN: 7.4
- CC(=O)OCc1cnc(C)c(O)c1/C=N\NC(=O)c1ccncc1: 31.7
- COc1ccc(COC(=O)N/N=C/c2c(CO)cnc(C)c2O)cc1: 27

# input for lookup
Please report Distribution for the following compound: Cc1ncc(CO)c(/C=N/NC(=O)c2ccncc2)c1O [PYRIDOXAL ISONICOTINOYL HYDRAZONE] 32

###

Test system: Rattus norvegicus
EXPERIMENT DESCRIPTION: % distribution of the radioiron in blood of rat followed by intravenous injection of chelating agent
Assay type: ADME, organism-based
EXPERIMENTAL CONDITIONS: in vivo
Each entry below carries its reported Distribution.
Field format: number, assumed %, no unit text.

* CC(=O)N(O)CCCCCNC(=O)CCC(=O)N(O)CCCCCNC(=O)CCC(=O)N(O)CCCCCN | 1.8
* Cc1csc(N/N=C/c2c(CO)cnc(C)c2O)n1 | 19.1
* Cc1ncc(CO)c(/C=N/NC(=O)c2ccncc2)c1O [PYRIDOXAL ISONICOTINOYL HYDRAZONE] | 2.3

Consider now this further molecule.
Answer with the recorded Distribution for the molecule listed here: Cc1ncc(CO)c(/C=N/Nc2nc(-c3ccccc3)cs2)c1O 19.6
